Sourced from patent US20240025949A1

biological target: rat angiotensin 2 type 1 receptor (rat); assay: cell-based or functional assay
We begin with a simple list: items and their reported b-arrestin2 Max.
Measured Quantity: b-arrestin2 Max (%)

>>> endpoint_result("SEQ ID NO: 84 (Sar-Arg-Val-Tyr-OMTh-His-Pro-D-Ala-OH) (peptide)")
80.6
>>> endpoint_result("SEQ ID NO: 10 (Sar-Arg-Val-Tyr-Ile-His-Pro-Ala-NH2) (peptide)")
60.3
>>> endpoint_result("SEQ ID NO: 82 (NM-D-Ala-Arg-Val-Tyr-Ile-His-Pro-D-Ala-OH) (peptide)")
60.6
>>> endpoint_result("SEQ ID NO: 5 (Sar-Arg-Val-Gly-Val-His-Pro-Gly-OH) (peptide)")
61.7
>>> endpoint_result("SEQ ID NO: 64 (Glu-Arg-Val-Tyr-Phe-His-Pro-NH2) (peptide)")
26.9
>>> endpoint_result("SEQ ID NO: 65 (N-Me-Asp-Arg-Val-Tyr-Phe-His-Pro-NH2) (peptide)")
67.3
>>> endpoint_result("SEQ ID NO: 9 (Sar-Arg-Val-Tyr-Ile-His-Pro-Ala-OH) (peptide)")
74
>>> endpoint_result("SEQ ID NO: 29 (Sar-Arg-Val-OMTyr-Ile-His-Pro-Ala-OH) (peptide)")
64.8
>>> endpoint_result("SEQ ID NO: 30 (Sar-Arg-Val-Tyr-OMTh-His-Pro-Ala-OH) (peptide)")
80.4
>>> endpoint_result("SEQ ID NO: 32 (Me2G-Arg-Val-Tyr-Ile-His-Pro-Ala-OH) (peptide)")
80.2
>>> endpoint_result("SEQ ID NO: 3 (Sar-Arg-Val-Ile-Val-His-Pro-Ile-OH) (peptide)")
67.1
>>> endpoint_result("SEQ ID NO: 44 (NMAla-Arg-Val-Tyr-Ile-His-Pro-D-Ala-OH) (peptide)")
71.9
>>> endpoint_result("SEQ ID NO: 83 (Sar-Arg-Val-Tyr-NVA-His-Pro-D-Ala-OH) (peptide)")
70.2
>>> endpoint_result("SEQ ID NO: 25 (Asp-Arg-Val-Tyr-Ile-His-Pro-Ala-OH) (peptide)")
77
>>> endpoint_result("SEQ ID NO: 27 (Sar-Arg-Val-Tyr-Ile-His-Pro-D-Ala-OH) (peptide)")
84.2
>>> endpoint_result("SEQ ID NO: 66 (N-Me-Glu-Arg-Val-Tyr-Phe-His-Pro-NH2) (peptide)")
58.5
>>> endpoint_result("SEQ ID NO: 8 (Sar-Arg-Val-Tyr-Val-His-Pro-Ala-NH2) (peptide)")
41.8
